biological target: T1, human CD3e (T-cell surface glycoprotein CD3 epsilon chain) (human, UniProt P07766 23-207); assay: flow cytometry, human PBMC, antibody 1 µg/mL, anti-human IgG Fc-Alexa Fluor647 (1:500), anti-hTcRβ-PerCP (1:30)
T1 construct: Target of the anti-hCD3e antibodies on human PBMC, Jurkat cells and cells expressing human CD3e; on T cells it is part of the CD3/TCR complex; also called hCD3e; CD3e on human PBMC
parameter: upper right quadrant, percent of cells AF647+ / hTcRβ-PerCP+ (%)
Answers are plain numbers, in %.

1B1-H1K2-IgG1-LALA (antibody, V domains shown, Humanized; human IgG1 with LALA mutations; also called H1K2 (humanized 1B1)) VH: QVQLVQSGAEVKKPGASVKVSCKASGYTFTSYWMHWVRQAPGQGLEWIGNIYPDSGTTNYGEKFKTRVTLTVDTSTSTAYMELSSLRSEDTAVYYCTRDTSGQYYFDYWGQGTLVTVSS VL: DIVMTQSPDSLAVSAGERVTMNCKSSQSLLNSRTRKNYLAWYQHKPGQSPKLLIYWASTRESGVPDRFSGSGSGTDFTLTISSLQAEDVAVYYCVQSFSLRAFGGGTKVEIK; 62.4
1B1-H4K3-IgG1-LALA (antibody, V domains shown, Humanized; human IgG1 with LALA mutations; also called H4K3 (humanized 1B1)) VH: QVQLVQSGAEVVKPGASVKLSCKASGYTFTSYWMHWVRQRHGQGLEWIGNIYPDSGTTNYGEKFKTRGTLTVDTSTSTAYMELSSLRSEDTAVYYCTRDTSGQYYFDYWGQGTLVTVSS VL: DIVMTQSPDSLAVSAGERVTMNCKSSQSLLNSRTRKNYLAWYQHKPGQSPKLLIYWASTRESGVPDRFSGSGSGTDFTLTISSVQAEDVAVYYCVQSFSLRAFGGGTKLEIK; 61.9
1B1-H3K1-IgG1-LALA (antibody, V domains shown, Humanized; human IgG1 with LALA mutations; also called H3K1 (humanized 1B1)) VH: QVQLVQSGAEVKKPGASVKLSCKASGYTFTSYWMHWVRQRHGQGLEWIGNIYPDSGTTNYGEKFKTRVTLTVDTSTSTAYMELSSLRSEDTAVYYCTRDTSGQYYFDYWGQGTLVTVSS VL: DIVMTQSPDSLAVSAGERATMNCKSSQSLLNSRTRKNYLAWYQHKPGQSPKLLIYWASTRESGVPDRFSGSGSGTDFTLTISSLQAEDVAVYYCVQSFSLRAFGGGTKVEIK; 61.2

Go through the items and report each one's upper right quadrant, percent of cells AF647+ / hTcRβ-PerCP+.
1. 1B1-H1K1-IgG1-LALA (antibody, V domains shown, Humanized; human IgG1 with LALA mutations; also called H1K1 (humanized 1B1)) VH: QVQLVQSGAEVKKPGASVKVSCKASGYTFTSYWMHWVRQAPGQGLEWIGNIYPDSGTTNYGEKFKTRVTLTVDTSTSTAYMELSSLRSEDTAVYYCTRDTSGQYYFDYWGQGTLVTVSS VL: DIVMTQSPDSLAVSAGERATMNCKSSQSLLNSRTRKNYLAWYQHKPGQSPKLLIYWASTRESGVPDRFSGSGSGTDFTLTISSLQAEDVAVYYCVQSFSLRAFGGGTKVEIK
2. 1B1-H4K1-IgG1-LALA (antibody, V domains shown, Humanized; human IgG1 with LALA mutations; also called H4K1 (humanized 1B1)) VH: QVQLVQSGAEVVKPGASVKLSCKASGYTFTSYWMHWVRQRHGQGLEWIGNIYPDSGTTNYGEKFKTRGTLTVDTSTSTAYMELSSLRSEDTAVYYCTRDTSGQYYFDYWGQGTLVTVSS VL: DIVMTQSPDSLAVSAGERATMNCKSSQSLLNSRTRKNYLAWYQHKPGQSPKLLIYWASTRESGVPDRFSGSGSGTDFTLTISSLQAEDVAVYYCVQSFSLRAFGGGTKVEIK

58
64.4
